- targetOfAssay: T1, human CD36 (His-tagged) (human, UniProt P16671 30-439)
- T1 construct: not shown: His tag
- T1 sequence (P16671 30-439 limits assumed): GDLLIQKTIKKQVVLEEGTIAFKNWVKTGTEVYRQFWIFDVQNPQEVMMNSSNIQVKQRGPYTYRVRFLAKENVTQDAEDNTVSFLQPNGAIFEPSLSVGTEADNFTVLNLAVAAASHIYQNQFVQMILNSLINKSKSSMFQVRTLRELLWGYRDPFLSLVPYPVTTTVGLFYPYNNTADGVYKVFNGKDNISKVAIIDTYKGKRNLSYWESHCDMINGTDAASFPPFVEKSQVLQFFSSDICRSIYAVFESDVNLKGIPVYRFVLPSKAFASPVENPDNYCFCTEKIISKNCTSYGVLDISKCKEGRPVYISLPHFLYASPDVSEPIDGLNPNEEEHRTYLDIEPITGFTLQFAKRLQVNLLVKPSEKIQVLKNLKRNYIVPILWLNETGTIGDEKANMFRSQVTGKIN
- assaySummary: SPR (Biacore T200), His-captured CD36, bivalent analyte model
endpoint: kon (M⁻¹ s⁻¹)
The reply should contain only the number, in M⁻¹ s⁻¹.

Field kon (entry 13G04 (antibody, human IgG1, V domains shown, Chimeric: mouse variable regions on human IgG1 LALA (L234A/L235A); also called 013G04) VH: QVQLQQSGAELVRPGASVKLSCKASGYTFTSYWMNWVKQRPGQGLEWIGMIDPSDNETHYNQMFKDKATLTVDKSSSTAYMQLSSLTSEDSAVYYCARSDYGNGYSFYLDVWGAGTTVTVSS VL: DIVLTQSPASLAVSLGQRATISCRASESVDSYGNSFMHWYQQKPGQPPKLLIYRASNLESGIPARFSGSGSRTDFTLTINPVEADDVATYYCQQSNEDPWTFGGGTKLEIK ) reads 2.4e+06

Form field kon, entry 28G04 (antibody, human IgG1, V domains shown, Chimeric: mouse variable regions on human IgG1 LALA (L234A/L235A); also called 028G04) VH: EVQLQQSGPELVKPGASVKISCKTSGYTFTEYTIHWVKQSHGKSLEWIGGIIPNNGGSSHKQNFKDKATLTVDKSSSTAYMELRSLTSEDSAVYYCARAGDYAFDYWGQGTTLTVSS VL: ETTVTQSPASLSMAIGEKVTIRCITSTDIDDDMNWYQQKPGEPPKLLISEGNTLRPGVPSRFSSSGYGTDFVFTIENMLSEDVADYYCLQSGTLPFTFGSGTKLEIK : 870000
